# Test system: MCF7
# measurement.description: Growth inhibition of human MCF7 cells at 10 uM relative to control
# Assay type: functional
# test.parameters: read-out: GI
value.kind: inhibition of growth at 10 µM
Quote the value and follow it with the unit of measurement.

INPUT: Using the record for `CCOC(=O)Nc1ccc2c(=O)n(-c3ccccc3C)c(C)nc2c1` , report its inhibition of growth at 10 µM.
OUTPUT: 5%

INPUT: Let us now turn to `Cc1ccccc1-n1c(C)nc2cc(NC(=O)c3ccc(Cl)cc3)ccc2c1=O`
OUTPUT: 42.2%

INPUT: Let us now turn to Cc1ccccc1-n1c(C)nc2cc(N3C(=O)CSC3c3ccccc3)ccc2c1=O (stereo unspecified)
OUTPUT: 21.8%

INPUT: Let us now turn to `Cc1ccccc1-n1c(C)nc2cc(NC(=O)c3ccccc3)ccc2c1=O`
OUTPUT: 7%

INPUT: Let us now turn to Cc1ccccc1-n1c(C)nc2cc(N3C(=O)CSC3c3ccc(F)cc3)ccc2c1=O (stereo unspecified)
OUTPUT: 9%

INPUT: Let us now turn to Cc1ccccc1-n1c(C)nc2cc(N3C(=O)CSC3c3ccc(Cl)cc3)ccc2c1=O (stereo unspecified)
OUTPUT: 5.2%
